Target: Fibroblast growth factor receptor 2 (Homo sapiens) (UniProt P21802)
Sequence (P21802 22-821 limits assumed): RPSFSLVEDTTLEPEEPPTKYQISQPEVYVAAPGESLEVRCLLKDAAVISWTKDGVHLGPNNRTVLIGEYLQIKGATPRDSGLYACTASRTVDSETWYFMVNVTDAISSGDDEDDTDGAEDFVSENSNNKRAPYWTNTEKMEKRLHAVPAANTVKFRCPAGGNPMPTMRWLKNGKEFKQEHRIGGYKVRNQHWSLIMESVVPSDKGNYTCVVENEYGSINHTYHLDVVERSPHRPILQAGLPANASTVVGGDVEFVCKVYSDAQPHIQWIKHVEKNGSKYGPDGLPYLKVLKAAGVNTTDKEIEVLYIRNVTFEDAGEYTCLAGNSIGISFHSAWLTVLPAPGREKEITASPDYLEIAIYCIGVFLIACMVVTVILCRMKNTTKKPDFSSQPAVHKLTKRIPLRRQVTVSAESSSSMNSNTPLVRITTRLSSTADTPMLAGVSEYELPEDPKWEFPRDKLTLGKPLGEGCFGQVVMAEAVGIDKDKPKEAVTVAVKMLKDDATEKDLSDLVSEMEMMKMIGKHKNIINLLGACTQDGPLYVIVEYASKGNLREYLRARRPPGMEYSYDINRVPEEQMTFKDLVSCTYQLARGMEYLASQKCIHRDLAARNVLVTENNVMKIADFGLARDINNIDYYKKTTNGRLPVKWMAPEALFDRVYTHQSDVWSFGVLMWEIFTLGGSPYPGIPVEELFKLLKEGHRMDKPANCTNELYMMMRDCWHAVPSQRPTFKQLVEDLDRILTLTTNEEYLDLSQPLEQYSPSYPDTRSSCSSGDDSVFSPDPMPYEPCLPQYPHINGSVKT
Test: Selectivity for Fibroblast growth factor receptor 2 over (KDR) kinase insert domain receptor
# note: boundary value 200 maps to 0.0; Selectivity below it maps to 1.0

Exercise: I wonder whether `Cc1ccc(Nc2ncc(-c3ccccc3)s2)nc1` has Selectivity below 200. Can you tell?
Solution: 1.0

Exercise: Please determine if `Cc1ccnc(Nc2ncc(-c3ccccc3)s2)c1` is below 200 in terms of Selectivity.
Solution: 1.0

Exercise: Please let me know if `Brc1cccc(Nc2ncc(-c3ccccc3)s2)n1` shows Selectivity below 200.
Solution: 0.0

Exercise: Is Selectivity of `Cc1cccc(Nc2ncc(-c3ccccc3)s2)n1` strictly below 200?
Solution: 0.0

Exercise: hey, is Selectivity for `N#Cc1cnc(Nc2ccccn2)s1` lower than 200 or not?
Solution: 1.0

Exercise: Please check: Selectivity for `Clc1ccc(Nc2ncc(-c3ccccc3)s2)nc1` , strictly under 200 or not?
Solution: 0.0

Exercise: Find out if reported Selectivity for `O=C(Nc1ncc(-c2ccccc2)s1)c1ccccc1` is less than 200
Solution: 1.0
